Test system: HCT-116
Experiment: Induction of apoptosis in human HCT-116 cells assessed as downregulation of NUP160 gene expression at 10 to 500 nM incubated for 6 to 48 hrs by RNA analysis
Assay type: functional, cell-based
Details: dose 10-500 nM, time 6-48 hrs
Active and inactive are the calls of the source. No cut-off for these calls is given here.
MEASUREMENT_KIND: Activity

1. CC[C@@]1(O)C(=O)OCc2c1cc1n(c2=O)Cc2c-1nc1cc3c(cc1c2-c1cc(OC)cc(OC)c1)OCO3    Active
2. CC[C@@]1(O)C(=O)OCc2c1cc1n(c2=O)Cc2cc3cc4c(cc3nc2-1)OCO4    Active
3. CC[C@@]1(O)C(=O)OCc2c1cc1n(c2=O)Cc2c-1nc1cc3c(cc1c2-c1ccc(OC)cc1)OCO3    Active
4. CCc1ccc(-c2c3c(nc4cc5c(cc24)OCO5)-c2cc4c(c(=O)n2C3)COC(=O)[C@]4(O)CC)cc1    Active
